Experiment: in vivo
propertyLabel: half-life

## Task Using the record for CCN(CC)C(=O)C1(c2ccccc2)CC1CN (stereo not shown) , report its half-life.
## Result 7 to 9 h
